Every entry's value here was drawn from paper PMC4893804.

molecular target: RB69/ABC5 hybrid DNA polymerase (Escherichia phage RB69, UniProt Q38087, D222A/D327A/F479V/I557M/L561V/L562T/N480A/N558A/R559L/V478W); test: biochemical
Sequence (Q38087 whole entry D222A/D327A/V478W/F479V/N480A/I557M/N558A/R559L/L561V/L562T): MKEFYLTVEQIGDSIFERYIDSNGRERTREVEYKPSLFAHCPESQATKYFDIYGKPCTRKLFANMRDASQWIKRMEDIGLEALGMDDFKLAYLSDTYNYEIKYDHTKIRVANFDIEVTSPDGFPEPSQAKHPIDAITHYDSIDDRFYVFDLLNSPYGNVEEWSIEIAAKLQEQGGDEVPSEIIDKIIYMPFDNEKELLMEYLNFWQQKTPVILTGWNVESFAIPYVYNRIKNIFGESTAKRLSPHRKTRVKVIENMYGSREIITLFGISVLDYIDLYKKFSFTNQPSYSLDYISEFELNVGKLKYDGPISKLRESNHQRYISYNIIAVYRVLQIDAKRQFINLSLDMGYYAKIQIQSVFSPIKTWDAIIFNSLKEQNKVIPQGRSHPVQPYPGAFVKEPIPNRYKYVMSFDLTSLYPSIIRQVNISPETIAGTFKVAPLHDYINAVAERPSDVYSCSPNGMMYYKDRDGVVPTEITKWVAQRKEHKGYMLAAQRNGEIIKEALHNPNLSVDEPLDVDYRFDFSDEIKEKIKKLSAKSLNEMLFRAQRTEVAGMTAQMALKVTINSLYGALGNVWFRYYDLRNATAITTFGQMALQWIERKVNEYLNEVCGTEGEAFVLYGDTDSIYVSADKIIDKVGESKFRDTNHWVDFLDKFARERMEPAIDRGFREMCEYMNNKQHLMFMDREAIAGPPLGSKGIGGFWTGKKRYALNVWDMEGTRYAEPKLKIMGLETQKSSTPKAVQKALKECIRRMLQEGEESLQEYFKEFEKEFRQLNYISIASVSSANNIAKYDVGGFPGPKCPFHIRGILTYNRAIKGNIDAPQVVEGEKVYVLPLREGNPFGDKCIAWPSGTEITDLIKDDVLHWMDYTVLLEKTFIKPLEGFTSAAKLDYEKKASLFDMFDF
pIC50: −log10 of the molar value.
ENDPOINT_LABEL: pIC50

// Cc1cn(C/C=C\COC(C(=O)O)P(=O)(O)O)c(=O)[nH]c1=O (stereo not shown) : pIC50 value = < 4.00

* * *

molecular target: HIV-1 RT (Human immunodeficiency virus type 1 group M subtype B, UniProt P03366); experiment: HIV-1 reverse transcriptase assay with homopolymeric template/primers; type: biochemical; settings: read-out: IC50 HIV-1 RT Poly rC.dG ([3H]dGTP); Poly rC.dG, [3H]dGTP
ENDPOINT_LABEL: IC50

// Cc1cn([C@H]2CC[C@@H](COP(=O)(O)OP(=O)(O)OP(=O)(O)O)O2)c(=O)[nH]c1=O [ddTTP, reference compound] : IC50 value = > 20000 nM

// Nc1nc2c(ncn2[C@H]2CC[C@@H](COP(=O)(O)OP(=O)(O)OP(=O)(O)O)O2)c(=O)[nH]1 [ddGTP, reference compound] : IC50 value = 260 nM
